- TARGET_OR_TEST_SYSTEM: human TRPM8 (Homo sapiens, UniProt Q7Z2W7)
- Construct: expressed in transfected cells; host or cells: Chinese hamster ovary (CHO) cells, T-REx tetracycline-inducible expression system (Invitrogen); co-transfected with pcDNA3.1 aequorin
- Sequence (Q7Z2W7 whole entry): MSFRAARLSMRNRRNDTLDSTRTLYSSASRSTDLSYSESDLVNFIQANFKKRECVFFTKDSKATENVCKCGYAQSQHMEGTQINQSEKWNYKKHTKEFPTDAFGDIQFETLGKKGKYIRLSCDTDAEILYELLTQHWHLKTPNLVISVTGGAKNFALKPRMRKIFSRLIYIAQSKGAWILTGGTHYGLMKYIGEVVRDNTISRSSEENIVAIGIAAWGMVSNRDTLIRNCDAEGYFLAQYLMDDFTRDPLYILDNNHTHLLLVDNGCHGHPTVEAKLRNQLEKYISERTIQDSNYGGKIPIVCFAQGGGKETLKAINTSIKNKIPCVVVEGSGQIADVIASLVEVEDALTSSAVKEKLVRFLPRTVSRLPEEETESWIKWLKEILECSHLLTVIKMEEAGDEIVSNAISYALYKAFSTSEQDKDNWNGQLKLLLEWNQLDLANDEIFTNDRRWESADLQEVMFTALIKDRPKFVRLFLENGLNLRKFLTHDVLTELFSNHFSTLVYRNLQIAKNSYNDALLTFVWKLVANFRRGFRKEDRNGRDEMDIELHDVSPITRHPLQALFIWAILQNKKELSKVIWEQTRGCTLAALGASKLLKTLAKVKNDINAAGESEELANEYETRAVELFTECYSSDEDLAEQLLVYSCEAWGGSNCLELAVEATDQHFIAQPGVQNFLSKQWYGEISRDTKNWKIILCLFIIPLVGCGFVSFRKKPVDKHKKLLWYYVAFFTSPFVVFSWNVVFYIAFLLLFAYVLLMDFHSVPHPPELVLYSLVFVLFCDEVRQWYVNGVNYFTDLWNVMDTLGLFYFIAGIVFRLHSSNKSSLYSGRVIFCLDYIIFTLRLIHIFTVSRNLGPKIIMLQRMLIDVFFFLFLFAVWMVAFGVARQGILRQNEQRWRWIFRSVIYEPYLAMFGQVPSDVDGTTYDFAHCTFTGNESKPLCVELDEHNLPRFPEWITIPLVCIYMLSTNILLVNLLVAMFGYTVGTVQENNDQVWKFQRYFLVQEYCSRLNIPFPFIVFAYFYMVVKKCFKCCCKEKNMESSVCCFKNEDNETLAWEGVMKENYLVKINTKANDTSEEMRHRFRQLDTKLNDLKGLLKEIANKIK
- ASSAY_COMMENT: Luminescence readout assay for measuring intracellular calcium (aequorin, CHO cells expressing human TRPM8; icilin, L-menthol or cold activation)
- Assay type: cell-based
- CONDITIONS: CHO cells expressing human TRPM8, icilin activation (1 μM), aequorin luminescence; read-out: hTRPM8 IC50
Structures can show the parent of a compound that is named as a salt.
The molecules listed here are annotated with their IC50.
Kindly provide the numeric value in nM only, without the unit symbol.

Take a look at these entries with their results.
>  <MOLECULE>
O=C(N[C@]1(c2ccc(Cl)c(Cl)c2)CCOc2cccnc21)c1ccccc1 (single isomer, unassigned)

>  <IC50 (nM)>
25

$$$$
>  <MOLECULE>
O=C(Nc1ccc(F)cc1)N[C@]1(c2ccc(C(F)(F)F)cc2)CCOc2cccnc21

>  <IC50 (nM)>
25

$$$$
>  <MOLECULE>
O=C(N[C@]1(c2ccc(OC(F)(F)F)cc2)CCOc2cccnc21)c1cnns1 [Example 214, formate]

>  <IC50 (nM)>
190

$$$$

input: Field request: IC50 | item: O=C(NC1(c2ccc(OC(F)(F)F)c(F)c2)CCOc2cccnc21)c1ccccc1 (stereo not shown)
output: 32

Taken from patent US20150031668A1.
